src = patent US20190343860A1

Biological target: hA3AR (Homo sapiens)
Construct: expressed in transfected cells
Sequence (P0DMS8 whole entry): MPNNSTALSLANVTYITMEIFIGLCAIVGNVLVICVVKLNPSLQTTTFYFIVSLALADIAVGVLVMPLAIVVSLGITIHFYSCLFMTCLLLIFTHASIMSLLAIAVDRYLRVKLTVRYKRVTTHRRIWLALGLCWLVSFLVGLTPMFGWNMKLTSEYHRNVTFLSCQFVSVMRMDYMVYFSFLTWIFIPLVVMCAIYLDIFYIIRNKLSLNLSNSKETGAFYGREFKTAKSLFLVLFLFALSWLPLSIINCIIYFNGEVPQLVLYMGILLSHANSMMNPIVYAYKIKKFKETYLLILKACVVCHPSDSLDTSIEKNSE
Assay: cAMP assay, inhibition of forskolin-stimulated cAMP in hA3AR-transfected CHO cells
Assay type: cell-based
Conditions: species h; percentage of maximal effect of 5′-N-ethylcarboxamidoadenosine 43, each at 10 μM
TEST_READOUT: % efficacy (%)

>>> data_value("O=S(=O)(O)c1ccc(CCNc2nc(C#Cc3ccccc3)nc3c2ncn3[C@H]2[C@H](O)[C@H](O)[C@@H]3C[C@@H]32)cc1")
7.2

a: CCNc1nc(C#Cc2ccccc2Cl)nc2c1ncn2[C@H]1[C@H](O)[C@H](O)[C@@H]2C[C@@H]21
b: CNC(=O)C12CC1C(n1cnc3c(NCCc4ccccc4)nc(C#Cc4ccccc4)nc31)C(O)C2O (stereo not shown)
Prompt: Which of the two items, a and b , has the greater recorded % efficacy? I would appreciate it if you answered with the label of your choice.
Response: b
(b: 105.3%, a: 7.0%)

1: CNc1nc(C#Cc2ccccc2)nc2c1ncn2[C@H]1[C@H](O)[C@H](O)[C@@H]2C[C@@H]21
2: O[C@@H]1[C@H](O)[C@@H]2C[C@@H]2[C@H]1n1cnc2c(NCCc3ccccc3)nc(C#Cc3ccccc3)nc21
Prompt: Which one would you say has the larger % efficacy value: 1 , or 2 ? Respond with the label that goes with your answer.
Response: 1

A: CCNc1nc(C#Cc2ccccc2)nc2c1ncn2[C@H]1[C@H](O)[C@H](O)[C@@H]2C[C@@H]21
B: CNC(=O)[C@@]12C[C@@H]1[C@@H](n1cnc3c(NCc4cccc(Cl)c4)nc(C#Cc4ccccc4)nc31)[C@H](O)[C@@H]2O
Prompt: Form field 'greater % efficacy' accepts A or B ; which applies? Give the label of your selection.
Response: B
